From: the supplement of paper PMC10567573

B1: TRIM55 (parent)
chain: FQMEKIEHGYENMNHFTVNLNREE

Variants of: B1
method: protein stability index of a GFP-peptide fusion (GPS, HEK-293T) (PSI 1-6); higher = more stable;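 also: lentivirally expressed fusions sorted by FACS into six bins by GFP to DsRed ratio, PSI derived from sequencing read proportions per bin multiplied by bin number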
condition: c terminus: a fixed tail appended
protein stability index reference
Please respond with just the number, no unit label.

Consider the worked cases shown below.
| alteration | protein stability index |
| --- | --- |
| E4F | 1.58 |
| G9C | 2.33 |

Would you mind telling me what protein stability index value was observed for `E11F` ?
2.04

Would you mind telling me what protein stability index value was observed for `F1N` ?
5.02
